# glutamate response, % of max values compiled below
# study target: Voltage-dependent calcium channel gamma-2 subunit (Mus musculus) + Glutamate receptor 2 (Rattus norvegicus) (UniProt O88602+P19491)
# Sequence (O88602 whole entry, looked up): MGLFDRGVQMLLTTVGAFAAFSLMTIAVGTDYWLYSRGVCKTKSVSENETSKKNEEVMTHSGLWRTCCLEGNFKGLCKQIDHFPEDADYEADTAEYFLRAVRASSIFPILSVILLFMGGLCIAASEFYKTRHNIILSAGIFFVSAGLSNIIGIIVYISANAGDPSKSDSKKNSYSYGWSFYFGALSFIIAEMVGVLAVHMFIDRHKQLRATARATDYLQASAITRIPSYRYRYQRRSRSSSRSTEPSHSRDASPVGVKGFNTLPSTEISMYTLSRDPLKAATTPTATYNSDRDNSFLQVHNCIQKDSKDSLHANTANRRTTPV
# Sequence (P19491 whole entry, looked up): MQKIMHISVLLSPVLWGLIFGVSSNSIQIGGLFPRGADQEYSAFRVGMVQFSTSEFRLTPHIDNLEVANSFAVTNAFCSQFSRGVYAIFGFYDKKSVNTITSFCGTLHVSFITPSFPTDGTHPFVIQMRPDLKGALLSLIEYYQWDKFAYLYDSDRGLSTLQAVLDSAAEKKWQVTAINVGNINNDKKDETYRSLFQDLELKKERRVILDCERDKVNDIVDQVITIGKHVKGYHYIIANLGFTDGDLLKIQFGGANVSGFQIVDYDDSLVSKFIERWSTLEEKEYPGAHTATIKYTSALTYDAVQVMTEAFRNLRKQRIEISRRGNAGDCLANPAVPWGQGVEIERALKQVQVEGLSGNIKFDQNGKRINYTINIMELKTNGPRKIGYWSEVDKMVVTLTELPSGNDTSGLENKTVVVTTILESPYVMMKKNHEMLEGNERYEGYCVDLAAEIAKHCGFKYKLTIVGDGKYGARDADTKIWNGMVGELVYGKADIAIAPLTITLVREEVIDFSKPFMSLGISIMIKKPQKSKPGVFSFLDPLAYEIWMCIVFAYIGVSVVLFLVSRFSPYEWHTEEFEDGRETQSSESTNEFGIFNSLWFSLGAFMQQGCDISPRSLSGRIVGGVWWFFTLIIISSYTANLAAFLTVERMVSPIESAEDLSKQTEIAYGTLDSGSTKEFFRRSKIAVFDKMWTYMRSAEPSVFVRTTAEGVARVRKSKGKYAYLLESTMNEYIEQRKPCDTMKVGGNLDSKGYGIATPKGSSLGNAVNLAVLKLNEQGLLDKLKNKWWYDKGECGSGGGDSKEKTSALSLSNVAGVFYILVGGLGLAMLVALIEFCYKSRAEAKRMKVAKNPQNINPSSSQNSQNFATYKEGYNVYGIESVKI
# assay overview: modulators of GluA2-stargazin AMPA receptor complexes, primary screen, cell-based, membrane potential dye (AID 1259245)
# experimental parameters: HEK293 GluA2+stargazin, membrane potential dye (FDSS), glutamate EC50, at 30 µM, hits were called plate by plate, in both directions
The whole screen tested about 40,000 compounds, of which about 1,400 (3.5%) were called active. What follows is part of a selection rich in actives, with near analogues and random picks from the rest.
measured attribute: glutamate response, % of max (%)

>>> result("Cc1nc2ccccc2c(=O)n1-c1cccc(NC(=O)CCC2CCCCC2)c1")
11
>>> result("COc1cn(CC(=O)Nc2ccc3c(c2)OCO3)c(CSc2nnnn2C)cc1=O")
23.6
>>> result("O=C(NC(C(=O)O)C12CC3CC(CC(C3)C1)C2)c1cc([N+](=O)[O-])ccc1Cl (configuration not stated)")
35.4
>>> result("O=C(/C=C/c1ccccc1)Nc1ccc(CC(=O)N2CCCC2)cc1")
31.3
>>> result("CCOc1ccc(S(=O)(=O)NCC(O)c2ccsc2)cc1F (configuration not stated)")
48.1
>>> result("CCc1ccc(NC(=O)Cn2c(=O)c3c(N4CCN(C(C)=O)CC4)ccnc3n(C)c2=O)cc1")
32.2
>>> result("COc1ccc(NC(=O)COc2ccccc2F)cc1N1CCCCC1=O")
20.8
>>> result("COc1ccc(NC(C)=O)cc1NC(=O)c1ccc(=O)[nH]n1")
38.5
>>> result("Cc1ccc(F)cc1NC(=O)CSc1ncc(S(=O)(=O)c2ccc(Cl)s2)c(N)n1")
28.9
>>> result("CCCC(CCC)C(=O)N1CCN(c2ncnc3c2nnn3-c2ccc(OC)cc2)CC1")
50.3
>>> result("O=C(NCCCN1CCCC1=O)C(=O)Nc1c2c(nn1-c1cccc(Cl)c1)CSC2")
21.6
>>> result("COc1ccc(S(=O)(=O)NCC(c2cccn2C)N2CCOCC2)cc1OC (configuration not stated)")
34.5
>>> result("CC(O)(CNC(=O)NCc1ccc(F)cc1)c1ccc(-c2ccccc2)cc1 (configuration not stated)")
15.8
>>> result("COc1ccc(S(=O)(=O)Nc2ccc(N3CCCCS3(=O)=O)cc2)cc1F")
25.7
>>> result("CC(=O)N1CCN(c2ccnc3c2c(=O)n(CC(=O)NCC2CCCO2)c(=O)n3C)CC1 (configuration not stated)")
51
>>> result("COc1ccc(Cl)cc1NC(=O)CC1C(=O)NCCN1C(=S)Nc1ccccc1 (configuration not stated)")
26.6
>>> result("Cn1nc(NC(=O)c2ccc3c(c2)OCO3)c2c1NC(=O)CC2c1cccs1 (configuration not stated)")
34.8
>>> result("COc1ccc(S(=O)(=O)NCC(c2ccc(C)cc2)N2CCN(C)CC2)cc1OC (configuration not stated)")
37.4
>>> result("CSc1cccc(NC(=O)Cn2c(=O)n(C3CC3)c(=O)c3nscc32)c1")
26.5
>>> result("Cc1ccc(CN2C(=O)NC3(CCN(C(=O)c4ccccc4F)CC3)C2=O)cc1")
11.7
>>> result("COc1ccc2cc(CNc3ccccc3)c(=O)n(CC(=O)Nc3ccccc3OC)c2c1")
-1.71
>>> result("CC(Oc1ccccc1)C(=O)N1CCN(c2ncnc3c2nnn3-c2ccc(Cl)cc2)CC1 (configuration not stated)")
46
>>> result("CCC(C)c1ccccc1OCC(O)CN (configuration not stated)")
21.1
>>> result("O=C(NCCn1ncc2c(N3CCOCC3)ncnc21)c1ccc2c(c1)OCO2")
28.9
>>> result("Cn1c(=O)c2c(ncn2CCc2ccccc2)n(C)c1=O")
41.9
>>> result("COc1ccc(-n2nc3c(c2NC(=O)C(=O)NC2CCCC2)CS(=O)(=O)C3)cc1")
41.9
>>> result("CC(=O)N1CCN(c2ccnc3c2c(=O)n(CC(=O)NCc2ccco2)c(=O)n3C)CC1")
49.5
>>> result("CCOc1ccc(C)cc1S(=O)(=O)Nc1cc(Cl)ccc1O")
20.5
>>> result("Cc1cnc2c(c1NCCc1ccc(S(N)(=O)=O)cc1)c(=O)n(C)c(=O)n2C")
32.2
>>> result("CCOC(=O)C(CC)Sc1ccnc2c1c(=O)n(C)c(=O)n2C (configuration not stated)")
21.5
>>> result("COC(=O)c1ccc(CSc2cc(N3CCN(c4ccccc4F)CC3)ncn2)o1")
58.6
>>> result("CCOc1ccc(N2CCCn3c2nc2c3c(=O)n(CCN3CCOCC3)c(=O)n2C)cc1")
10
>>> result("O=C(Nc1c2c(nn1-c1ccc(F)cc1)CSC2)C(=O)N1CCCCCC1")
32
>>> result("COCCNC(=O)C(=O)Nc1cc(N2CCCS2(=O)=O)ccc1OC")
22.8
>>> result("CC(=O)NCCn1ncc2c(N3CCN(c4ccccc4)CC3)ncnc21")
30
>>> result("O=C(NCc1ccc2c(c1)OCO2)c1ccc(=O)[nH]n1")
25.6
>>> result("COc1ccc(-n2nc3c(c2NC(=O)C(=O)N2CCCCC2)CSC3)cc1")
33.6
>>> result("CC(C)c1cc(=O)n(CC(=O)Nc2ccc(S(=O)(=O)Nc3nccs3)cc2)cn1")
41.9
>>> result("COC(=O)N1CCC(CNC(=O)c2ccc(F)cc2)CC1")
46.6
>>> result("COc1ccc(C)cc1S(=O)(=O)NCC1CCN(C2CCCC2)CC1")
35.2
>>> result("O=[N+]([O-])c1cccc(S(=O)(=O)NCC(c2cccs2)N2CCOCC2)c1 (configuration not stated)")
23.5
>>> result("COc1ccc(-n2nnc3c(N4CCN(C(=O)C(C)Oc5ccccc5)CC4)ncnc32)cc1 (configuration not stated)")
83.4

###

# study target: Voltage-dependent calcium channel gamma-2 subunit (Mus musculus) + Glutamate receptor 2 (Rattus norvegicus) (UniProt O88602+P19491)
# assay overview: modulators of GluA2-stargazin AMPA receptor complexes, primary screen, cell-based, membrane potential dye (AID 1259245)
# experimental parameters: HEK293 GluA2+stargazin, membrane potential dye (FDSS), glutamate EC50, at 30 µM, hits were called plate by plate, in both directions; compound-alone response (agonism)
Hit rate of the full screen: of about 40,000 compounds, about 1,400 (3.5%) were called active. Shown is part of a subset that was picked to be rich in actives.
measured attribute: compound max-min signal

>>> result("O=C(NCCCn1ccnc1)C(=O)Nc1c2c(nn1-c1ccc(Cl)cc1)CSC2")
0.0348
>>> result("CCn1nnc2c(N3CCN(CC(=O)Nc4c(C)cc(C)cc4C)CC3)ncnc21")
0.0423
>>> result("CCCCCOc1cccc(C(=O)Nc2ccc(S(=O)(=O)Nc3nnc(CC)s3)cc2)c1")
0.112
>>> result("O=C(Nc1c2c(nn1-c1ccc(F)cc1)CSC2)C(=O)N1CCCCCC1")
0.071
>>> result("COc1ccc(-n2nc3c(c2NC(=O)C(=O)N2CCCCC2)CSC3)cc1")
0.0721

###

# study target: Voltage-dependent calcium channel gamma-2 subunit (Mus musculus) + Glutamate receptor 2 (Rattus norvegicus) (UniProt O88602+P19491)
# assay overview: modulators of GluA2-stargazin AMPA receptor complexes, primary screen, cell-based, membrane potential dye (AID 1259245)
# experimental parameters: HEK293 GluA2+stargazin, membrane potential dye (FDSS), glutamate EC50, at 30 µM, hits were called plate by plate, in both directions
In all, about 40,000 compounds went through this assay and about 1,400 (3.5%) were called active.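 How the source made its calls: active means any of four per-well response measures lying three or more SD from its plate-wide compound average, in either direction; inactive means the rest, inconclusive results apart.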 The full list was thinned out, with actives kept by preference.
Outcomes: y for active, n for inactive

>>> category_label("COc1ccc(N2C(=O)/C(=C/c3ccncc3)SC2=S)cc1")
"n"
>>> category_label("O=S(=O)(c1cccs1)N1CCC(c2ccsc2)CC1")
"n"
>>> category_label("Cc1cccc(Nc2ccc(N3CCN(S(=O)(=O)c4cccs4)CC3)nn2)n1")
"y"
>>> category_label("CCc1ccc(S(=O)(=O)N2CCN(c3ccc(Nc4cccc(C)n4)nn3)CC2)cc1")
"y"
>>> category_label("O=S(=O)(c1ccc(F)cc1F)N1CCN(c2ccc(-c3cccs3)nn2)CC1")
"n"
>>> category_label("O=S(=O)(c1ccc2c(c1)CCCC2)N1CCN(c2ccc3nncn3n2)CC1")
"n"

###

# glutamate slope, % of max values compiled below
# study target: Voltage-dependent calcium channel gamma-2 subunit (Mus musculus) + Glutamate receptor 2 (Rattus norvegicus) (UniProt O88602+P19491)
# assay overview: modulators of GluA2-stargazin AMPA receptor complexes, primary screen, cell-based, membrane potential dye (AID 1259245)
# experimental parameters: HEK293 GluA2+stargazin, membrane potential dye (FDSS), glutamate EC50, at 30 µM, hits were called plate by plate, in both directions; measured here: glutamate response slope, % max
The campaign covered roughly 40,000 compounds. About 1,400 (3.5%) were called active. Shown is part of a subset that was picked to be rich in actives.
measured attribute: glutamate slope, % of max

>>> result("Cc1nn(CCNC(=O)c2cccc([N+](=O)[O-])c2)c(C)c1Cl")
"65.4%"
>>> result("Cc1nn(-c2ccccc2)c2ncc(C(=O)Nc3ccc(F)cc3F)c(Cl)c12")
"43.5%"
>>> result("CC1CCN(CC(O)COc2ccc(C(=O)c3ccccc3)cc2)CC1 (stereo not given)")
"82.1%"
>>> result("C=CCNC(=O)NC1CCCCC1N1C(=O)CSC1=O (stereo not given)")
"45.6%"
>>> result("Cc1ccccc1CN1C(=O)C2(c3ccccc31)N(c1ccc(F)c(F)c1)C(=O)CS2(=O)=O (stereo not given)")
"74.8%"
